Counter-ions that a name gives are not always drawn.
measurement.name: melting point (°C)

>>> readout_value("CC(C)(C)OC(=O)N1CCCC(C(=O)N2CCC(c3[nH]nc4c3C(=O)c3c(NC(=O)NN5CCOCC5)cccc3-4)CC2)C1 (centres unmarked) [Example CCLXXXIX]")
196
>>> readout_value("CC(C)(C)OC(=O)Nc1ccc(C(=O)N2CCC(c3[nH]nc4c3C(=O)c3c(NC(=O)NN5CCOCC5)cccc3-4)CC2)cc1 [Example CCXCIX]")
212
>>> readout_value("CN1CCN(c2ccc(-c3[nH]nc4c3C(=O)c3c(NC(=O)NN(C)C)cccc3-4)cc2)CC1 (as salt: TFA) [Example CCXXII]")
192
>>> readout_value("O=C(Nc1cccc2c1C(=O)c1c-2n[nH]c1-c1ccc(C(=O)NN2CCCC2)s1)NN1CCOCC1 (as salt: TFA) [Example CXLVI]")
213

###

Structures can show the parent of a compound that is named as a salt.
measurement.name: melting point (°C)

>>> readout_value("NC1CCN(C(=O)c2ccc(-c3[nH]nc4c3C(=O)c3c(NC(=O)NN5CCOCC5)cccc3-4)s2)C1 (stereo not drawn) (as salt: TFA)")
201
>>> readout_value("NC1CCCC(C(=O)N2CCC(c3[nH]nc4c3C(=O)c3c(NC(=O)NN5CCOCC5)cccc3-4)CC2)C1 (stereo not drawn) (as salt: TFA)")
201
>>> readout_value("NC1CCC(C(=O)N2CCC(c3[nH]nc4c3C(=O)c3c(NC(=O)NN5CCOCC5)cccc3-4)CC2)CC1 (stereo not drawn) (as salt: TFA)")
202

###

Counter-ions that a name gives are not always drawn.
measurement.name: melting point (°C)

>>> readout_value("CC(C)(C)OC(=O)N[C@H]1CC[C@H](C(=O)N2CCC(c3[nH]nc4c3C(=O)c3c(NC(=O)NN5CCOCC5)cccc3-4)CC2)CC1 [Example CCLXXXVI]")
178
>>> readout_value("CCN1CCN(c2ccc(-c3[nH]nc4c3C(=O)c3c(NC(=O)NN5CCOCC5)cccc3-4)cc2)CC1 (as salt: TFA) [Example CCXIX]")
245
>>> readout_value("O=C(Nc1cccc2c1C(=O)c1c-2n[nH]c1-c1ccc(N2CCC(N3CCCC3)CC2)cc1)NN1CCOCC1 (as salt: TFA) [Example CCLI]")
247

###

Counter-ions that a name gives are not always drawn.
measurement.name: melting point (°C)

>>> readout_value("C[C@@H]1CN(c2ccc(-c3[nH]nc4c3C(=O)c3c(NC(=O)NN5CCOCC5)cccc3-4)cc2)C[C@H](C)N1 (as salt: TFA)")
237
>>> readout_value("CN1CCN(C(=O)[C@H]2CC[C@H](c3[nH]nc4c3C(=O)c3c(NC(=O)NN5CCOCC5)cccc3-4)CC2)CC1 (as salt: TFA)")
228
>>> readout_value("CC1CN(c2ccc(-c3[nH]nc4c3C(=O)c3c(NC(=O)NN5CCOCC5)cccc3-4)cc2)CCN1 (stereo not shown) (as salt: TFA)")
230
>>> readout_value("CCOC(=O)c1ccc(-c2[nH]nc3c2C(=O)c2c(NC(=O)NN4CCC[C@@H]4COC)cccc2-3)s1")
221
>>> readout_value("O=C(Nc1cccc2c1C(=O)c1c-2n[nH]c1[C@H]1CC[C@H](C(=O)N2CCNCC2)CC1)NN1CCOCC1 (as salt: TFA)")
248
>>> readout_value("Nc1ccc(CC(=O)N2CCC(c3[nH]nc4c3C(=O)c3c(NC(=O)NN5CCOCC5)cccc3-4)CC2)cc1 (as salt: TFA)")
177
>>> readout_value("O=C(Nc1cccc2c1C(=O)c1c-2n[nH]c1-c1ccc(N2CCNCC2)cc1)NN1CCC[C@H]1CO (as salt: TFA)")
190
>>> readout_value("O=C(Nc1cccc2c1C(=O)c1c-2n[nH]c1-c1ccc(N2CCNCC2)cc1)NN1CCN(CCO)CC1 (as salt: TFA)")
279
>>> readout_value("O=C(CN1CCC(O)CC1)Nc1cccc2c1C(=O)c1c-2n[nH]c1-c1ccc(N2CCOCC2)cc1")
245
>>> readout_value("CN(C)C1CCCC(C(=O)N2CCC(c3[nH]nc4c3C(=O)c3c(NC(=O)NN5CCOCC5)cccc3-4)CC2)C1 (stereo not shown) (as salt: TFA)")
153
>>> readout_value("O=C(Nc1cccc2c1C(=O)c1c-2n[nH]c1-c1ccc(N2CCNCC2)cc1)NN1CCC[C@@H]1CO (as salt: TFA)")
193
>>> readout_value("O=C(Nc1cccc2c1C(=O)c1c-2n[nH]c1-c1ccc(C(=O)NC2CN3CCC2CC3)s1)NN1CCOCC1 (stereo not shown) (as salt: TFA)")
245
>>> readout_value("CN1CCN(NC(=O)Nc2cccc3c2C(=O)c2c-3n[nH]c2-c2ccc(N3CCNCC3)cc2)CC1 (as salt: TFA)")
254
>>> readout_value("O=C(Nc1cccc2c1C(=O)c1c-2n[nH]c1-c1ccc(C(=O)N2CCN(c3ccccn3)CC2)s1)NN1CCOCC1 (as salt: TFA)")
202
>>> readout_value("CC(C)N1CCN(c2ccc(-c3[nH]nc4c3C(=O)c3c(NC(=O)NN5CCOCC5)cccc3-4)cc2)CC1 (as salt: TFA)")
253
>>> readout_value("O=C(Nc1cccc2c1C(=O)c1c-2n[nH]c1-c1ccc(N2CCC(N3CCCCC3)CC2)cc1)NN1CCOCC1 (as salt: TFA)")
233
>>> readout_value("CCN(CC)CC1CCCCN1C(=O)c1ccc(-c2[nH]nc3c2C(=O)c2c(NC(=O)NN4CCOCC4)cccc2-3)s1 (stereo not shown) (as salt: TFA)")
210
